- measured on: LZK (Homo sapiens, UniProt O43283)
- Construct: 10 nM LZK, catalytic domain, Carna Biosiences in assay buffer; purchased Carna Biosciences ('Carna Biosiences' [sic])
- Sequence (O43283 168-409 limits assumed): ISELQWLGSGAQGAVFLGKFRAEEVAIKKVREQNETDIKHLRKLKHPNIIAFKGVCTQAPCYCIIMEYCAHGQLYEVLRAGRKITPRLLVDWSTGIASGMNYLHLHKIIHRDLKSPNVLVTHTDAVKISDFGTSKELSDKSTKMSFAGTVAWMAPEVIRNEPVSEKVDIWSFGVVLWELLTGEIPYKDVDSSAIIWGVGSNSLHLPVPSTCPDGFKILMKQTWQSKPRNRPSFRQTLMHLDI
- protocol summary: LZK biochemical assay (TR-FRET, MKK7 phosphorylation)
- Description: LZK assay is a biochemical assay format designed to screen for inhibitors of LZK. Enzymatic activity of LZK is measured by monitoring phosphorylation of the physiological substrate MKK7 (MAP2K7, Dual specificity mitogen-activated protein kinase kinase 7). Phosphorylation is detected by a TR-FRET system whereby His-tagged MKK7 is labeled by a XL665-labeled anti-His antibody (FRET acceptor, emission 665 nm). […]
pIC50: −log10 of the molar value.
Reported pIC50 values for a set of molecules
test readout: pIC50

> print(dat)
                                   molecule  test.readout  recorded.value
1  CCC(c1ccc(C(F)(F)F)nc1)n1cc(-c2cc(-c3ccnc(OC(F)F)c3)c3nc(N)nn3c2)cn1 (racemic) [II-25]         pIC50            7.09
2  CCC(c1ccc(C(F)(F)F)cc1)n1cc(-c2cc(-c3cnn(C4CCCC4)c3)n3nc(N)nc3c2)cn1 (single isomer, unassigned) [II-134]         pIC50            7.36
3  CCC(c1ccc(C(F)(F)F)nc1)n1cc(-c2cc(-c3cnn(CC(F)(F)F)c3)c3nc(N)nn3c2)cn1 (single isomer, unassigned) [II-113]         pIC50            7.23

----------
- measured on: LZK (Homo sapiens)
- Construct: 10 nM LZK, catalytic domain, Carna Biosiences in assay buffer; purchased Carna Biosciences ('Carna Biosiences' [sic])
- protocol summary: LZK biochemical assay (TR-FRET, MKK7 phosphorylation)
- settings: LZK catalytic domain, MKK7 substrate, 15 μM ATP
test readout: IC50 (nM)

> print(dat)
                                   compound  recorded.value
1  CC[C@H](C)NC(=O)c1cc(-c2cnn(C3CCOc4ccccc43)c2)cc2nc(N)nn12 (mixture of isomers) [Example I-16]             3.3
2  CC[C@H](C)NC(=O)c1cc(-c2cnn(C(c3ccc(OCC(F)(F)F)nc3)C3CC3)c2)cc2nc(N)nn12 (mixture of isomers) [Example I-119]              36
3  CC[C@H](C)NC(=O)c1cc(-c2cnn(C3CCc4ccccc43)c2)cn2nc(N)nc12 (single isomer, unassigned) [Example I-15]             7.8

----------
- measured on: LZK (Homo sapiens, UniProt O43283)
- Construct: 10 nM LZK, catalytic domain, Carna Biosiences in assay buffer; purchased Carna Biosciences ('Carna Biosiences' [sic])
- protocol summary: LZK biochemical assay (TR-FRET, MKK7 phosphorylation)
- settings: LZK catalytic domain, MKK7 substrate, 15 μM ATP
pIC50: −log10 of the molar value.
Reported pIC50 values for a set of compounds
test readout: pIC50

> print(dat)
                                   compound  test.readout  recorded.value
1  CC[C@H](C)NC(=O)c1cc(-c2cnn(C3CCCc4ccncc43)c2)cc2nc(N)nn12 (mixture of isomers)         pIC50            8.29
2  CC[C@H](C)NC(=O)c1cc(-c2cnn(C(c3cncc(Cl)c3)C(C)C)c2)cn2nc(N)nc12 (single isomer, unassigned) [Example I-63]         pIC50            8.28
3  CCC(c1ccc(C(F)F)nc1)n1cc(-c2cc(C(=O)N[C@@H](C)CC)n3nc(N)nc3c2)cn1 (single isomer, unassigned) [Example I-93]         pIC50            8.20

----------
- measured on: LZK (Homo sapiens)
- Construct: 10 nM LZK, catalytic domain, Carna Biosiences in assay buffer; purchased Carna Biosciences ('Carna Biosiences' [sic])
- protocol summary: LZK biochemical assay (TR-FRET, MKK7 phosphorylation)
pIC50: −log10 of the molar value.
test readout: pIC50

> print(dat)
                                   compound  recorded.value
1  CCC(c1ccc(C(F)(F)F)cc1)n1cc(-c2cc(-c3cnn(C)c3)c3nc(N)nn3c2)cn1 (single isomer, unassigned) [II-101]            6.96
2  CCC(c1ccc(C(F)F)nc1)n1cc(-c2cc(-c3ccc(C(F)(F)F)nc3)n3nc(N)nc3c2)cn1 (racemic) [II-61]            7.21
3  CCC(c1ccc(C(F)(F)F)nc1)n1cc(-c2cc(-c3ccc(=O)n(C(F)F)c3)n3nc(N)nc3c2)cn1 (single isomer, unassigned) [II-180]            7.10
4  CCC(c1ccc(C(F)(F)F)cc1)n1cc(-c2cc(-c3cnn(C)c3)c3nc(N)nn3c2)cn1 (racemic) [II-99]            6.82

----------
- measured on: LZK (Homo sapiens)
- Construct: 10 nM LZK, catalytic domain, Carna Biosiences in assay buffer; purchased Carna Biosciences ('Carna Biosiences' [sic])
- Sequence (O43283 168-409 limits assumed): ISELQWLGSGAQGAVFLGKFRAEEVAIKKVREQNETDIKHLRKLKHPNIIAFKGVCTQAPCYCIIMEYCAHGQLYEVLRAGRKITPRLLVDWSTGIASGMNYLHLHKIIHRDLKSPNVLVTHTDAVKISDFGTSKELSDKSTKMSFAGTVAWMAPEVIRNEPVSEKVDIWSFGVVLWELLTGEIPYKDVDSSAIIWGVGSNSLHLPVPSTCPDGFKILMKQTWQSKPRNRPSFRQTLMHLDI
- protocol summary: LZK biochemical assay (TR-FRET, MKK7 phosphorylation)
test readout: IC50 (nM)

> print(dat)
                                   compound  recorded.value
1  CC(C)C(c1ccc(C(F)(F)F)nc1)n1cc(-c2cc(-c3ccc(C4CC4)nc3)n3nc(N)nc3c2)cn1 (racemic) [II-58]              22
2  CC(C)C(c1ccc(C(F)(F)F)nc1)n1cc(-c2cc(-c3ccc(C(F)(F)F)nc3)c3nc(N)nn3c2)cn1 (single isomer, unassigned) [II-41]             770
3  Nc1nc2c(-c3ccc(=O)n(C(F)F)c3)cc(-c3cnn(C(c4ccc(C(F)(F)F)nc4)C4CCOCC4)c3)cn2n1 (single isomer, unassigned) [II-155]             3.1
4  CCC(c1ccc(C(F)(F)F)cc1)n1cc(-c2cc(-c3cnn(C4CCCC4)c3)n3nc(N)nc3c2)cn1 (centres unmarked) [II-132]             120
5  CC(C)C(c1ccc(C(F)(F)F)nc1)n1cc(-c2cc(-c3ccnc(C(F)(F)F)c3)n3nc(N)nc3c2)cn1 (single isomer, unassigned) [II-29]              97
